Measured values drawn from a melting point compilation (Tetko et al.; mined from patent text by program, amines drawn as free bases though some values may be those of a salt) for this set.

Result type: melting point

> print(dat)
                                   compound    result.type         result
1  CC1=CC(=C(CC(C)CC(C)(C)C)c2cc(C)cc(C)c2OCc2ccccc2)C(O)C(C)=C1 (stereo unspecified)  melting point  125 to 126 °C
2  COc1ccc2[nH]c3c(C)nc4c(c3c2c1)C(=O)CC(C)(C)C4  melting point  241 to 243 °C
3  CCCc1nc(C)c(C(=O)O)n1Cc1ccc2oc(-c3ccccc3NS(=O)(=O)C(F)(F)F)c(Br)c2c1  melting point  168 to 170 °C
4  Cc1cc(NC(=O)c2c(Cl)cccc2Cl)c2nccc(Cl)c2c1C  melting point  190 to 193 °C
5  CCN(CC)C(=O)NC1CC2c3cccc4[nH]c(C#Cc5cccs5)c(c34)CC2N(C)C1 (stereo unspecified)  melting point  252 to 256 °C
6        NS(=O)(=O)Oc1ccc2cc(C3CCCCC3)sc2c1  melting point         128 °C
